The origin of these recorded values is paper PMC4306938.

# test.system: c-Met (Homo sapiens)
# assay.name: cell-free Z-LYTE Tyr6 peptide kinase assay, positive control measured by the authors
# Type: biochemical
experimental.readout: IC50 (µM)
Give just the number in µM; leave the unit off.

Request: Look up IC50 for this compound: C/C=C(/C=O)[C@@H](CC=O)CC(=O)OCCc1ccc(O)cc1 [OC, (−)-Oleocanthal]
Result: 5

---

# test.system: c-Met (Homo sapiens, UniProt P08581)
# Sequence (P08581 25-307): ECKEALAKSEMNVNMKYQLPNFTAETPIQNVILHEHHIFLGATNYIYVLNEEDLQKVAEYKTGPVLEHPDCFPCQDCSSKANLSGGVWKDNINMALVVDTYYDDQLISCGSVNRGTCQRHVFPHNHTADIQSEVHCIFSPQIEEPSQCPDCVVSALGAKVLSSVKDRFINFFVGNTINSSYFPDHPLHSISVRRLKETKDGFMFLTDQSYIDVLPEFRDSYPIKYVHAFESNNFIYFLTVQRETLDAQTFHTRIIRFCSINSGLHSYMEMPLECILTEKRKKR
# Sequence (P08581 308-1390): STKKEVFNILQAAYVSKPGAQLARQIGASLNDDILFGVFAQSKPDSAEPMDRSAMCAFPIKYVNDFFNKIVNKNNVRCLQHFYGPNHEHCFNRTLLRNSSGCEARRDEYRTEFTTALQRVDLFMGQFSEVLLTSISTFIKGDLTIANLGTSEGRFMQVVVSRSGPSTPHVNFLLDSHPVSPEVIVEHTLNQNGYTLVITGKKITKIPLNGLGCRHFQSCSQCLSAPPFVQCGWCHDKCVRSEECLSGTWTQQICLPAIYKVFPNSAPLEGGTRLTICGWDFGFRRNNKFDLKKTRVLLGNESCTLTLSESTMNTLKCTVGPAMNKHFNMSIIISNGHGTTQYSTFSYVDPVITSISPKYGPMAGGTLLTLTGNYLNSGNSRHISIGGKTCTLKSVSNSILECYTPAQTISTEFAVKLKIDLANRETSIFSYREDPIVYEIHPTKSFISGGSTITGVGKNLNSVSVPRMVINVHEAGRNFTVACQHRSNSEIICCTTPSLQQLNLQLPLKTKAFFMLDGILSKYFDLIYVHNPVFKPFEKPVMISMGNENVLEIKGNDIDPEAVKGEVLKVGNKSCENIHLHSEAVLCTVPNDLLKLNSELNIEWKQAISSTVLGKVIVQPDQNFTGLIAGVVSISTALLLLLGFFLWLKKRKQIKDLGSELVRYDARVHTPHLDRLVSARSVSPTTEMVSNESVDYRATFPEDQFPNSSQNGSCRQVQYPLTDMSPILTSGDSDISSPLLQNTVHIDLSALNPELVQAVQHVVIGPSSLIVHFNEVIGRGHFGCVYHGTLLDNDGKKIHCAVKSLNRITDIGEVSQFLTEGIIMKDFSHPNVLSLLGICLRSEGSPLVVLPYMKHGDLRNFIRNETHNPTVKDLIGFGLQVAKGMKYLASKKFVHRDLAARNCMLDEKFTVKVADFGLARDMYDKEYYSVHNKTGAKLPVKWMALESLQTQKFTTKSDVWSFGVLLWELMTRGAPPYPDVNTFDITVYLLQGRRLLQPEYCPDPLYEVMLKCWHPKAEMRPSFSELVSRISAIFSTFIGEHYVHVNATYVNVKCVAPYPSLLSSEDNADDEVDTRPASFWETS
# assay.name: cell-free Z-LYTE Tyr6 peptide kinase assay, dose-response
# Type: biochemical
experimental.readout: pIC50
Field pIC50 (float): negative decimal logarithm of the concentration in molar.

Request: Need pIC50, item O[C@]12CCCCCC[C@@H]3CCN4CCC[C@](O)(CCCCCC[C@@H]5CCN(CCC1)[C@H]2O5)[C@@H]4O3
Result: 4.70
